Can you tell me pIC50 for the items I'm about to list?
biological target: human LPA1 (Homo sapiens, UniProt Q92633); construct: expressed in transfected cells; host or cells: Chinese hamster ovary (CHO) cells; experiment: LPA1 functional antagonist assay (LPA-induced calcium flux); assay type: cell-based; conditions: read-out: hLPA1 IC50
Sequence (Q92633 whole entry): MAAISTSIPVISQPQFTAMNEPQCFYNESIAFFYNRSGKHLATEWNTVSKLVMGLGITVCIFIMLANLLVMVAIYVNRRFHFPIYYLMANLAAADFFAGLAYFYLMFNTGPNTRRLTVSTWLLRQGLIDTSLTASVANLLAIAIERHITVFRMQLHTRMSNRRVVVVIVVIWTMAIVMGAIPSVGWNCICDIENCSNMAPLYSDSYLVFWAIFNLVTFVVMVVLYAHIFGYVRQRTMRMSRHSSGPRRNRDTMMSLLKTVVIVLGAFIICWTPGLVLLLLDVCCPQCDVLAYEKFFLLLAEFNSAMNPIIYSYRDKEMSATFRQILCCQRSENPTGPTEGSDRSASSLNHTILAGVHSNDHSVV
Scale note: pIC50 = -log10(concentration in M).

Enquiry: Give the measured pIC50 of CCC(C1CCC1)N(C)C(=O)OCc1c(-c2ccc(O[C@H]3CCC[C@H](C(=O)O)C3)c(C)n2)nnn1C (mixture of isomers) [Example 99] .
Return: 6.84

Enquiry: Give the measured pIC50 of CCC1CCCN1C(=O)OCc1c(-c2ccc(O[C@H]3CCC[C@H](C(=O)O)C3)c(C)n2)nnn1C (mixture of isomers) [Example 152] .
Return: 6.80

Enquiry: Give the measured pIC50 of Cc1nc(-c2nnn(C)c2COC(=O)N(C)C(C)C)ccc1O[C@H]1CCC[C@H](C(=O)O)C1 [Example 138] .
Return: 7.01

---

target: human LPA1 (Homo sapiens, UniProt Q92633); construct: expressed in transfected cells; host or cells: Chinese hamster ovary (CHO) cells; experiment: LPA1 functional antagonist assay (LPA-induced calcium flux); type: cell-based; conditions: human LPA1; read-out: hLPA1 IC50
Threshold 300 nM: IC50 strictly smaller gives class 1, otherwise class 0.

Enquiry: Consider the compound CC(C)=CCN(C)C(=O)OCc1c(-c2ccc(O[C@H]3CCC[C@@H](C(=O)O)C3)c(C)n2)nnn1C [Example 172] . Is its IC50 strictly less than 300 nM?
Return: class 0

Enquiry: Consider the compound CCCN(C)C(=O)OCc1c(-c2ccc(O[C@@H]3CCC[C@@H](C(=O)O)C3)c(C)n2)nnn1C [Example 193] . Is its IC50 strictly less than 300 nM?
Return: class 0

Enquiry: Consider the compound CN(CC1CC1(F)F)C(=O)OCc1c(-c2ccc(O[C@H]3CCC[C@H](C(=O)O)C3)cn2)nnn1C (mixture of isomers) [Example 186] . Is its IC50 strictly less than 300 nM?
Return: class 1

Enquiry: Consider the compound Cc1nc(-c2nnn(C)c2COC(=O)N(C)C2CC(C)(C)C2)ccc1O[C@H]1CCC[C@@H](C(=O)O)C1 [Example 160] . Is its IC50 strictly less than 300 nM?
Return: class 1

Enquiry: Consider the compound CCCC1CCN(C(=O)OCc2c(-c3ccc(O[C@H]4CCC[C@H](C(=O)O)C4)c(C)n3)nnn2C)C1 (mixture of isomers) [Example 166] . Is its IC50 strictly less than 300 nM?
Return: class 1

Enquiry: Consider the compound CN(CCC(C)(C)F)C(=O)OCc1c(-c2ccc(O[C@H]3CCC[C@H](C(=O)O)C3)cn2)nnn1C [Example 188] . Is its IC50 strictly less than 300 nM?
Return: class 1

---

biological target: human LPA1 (Homo sapiens); construct: expressed in transfected cells; host or cells: Chinese hamster ovary (CHO) cells; assay: LPA1 functional antagonist assay (LPA-induced calcium flux); type: cell-based; conditions: read-out: hLPA1 IC50
measurement-type: pIC50
Scale note: pIC50 = -log10(concentration in M).

Enquiry: Give the measured pIC50 of CCCN(C)C(=O)OCc1c(-c2ccc(O[C@H]3CCC[C@H](C(=O)O)C3)c(C)n2)nnn1C .
Return: 7.72

Enquiry: Give the measured pIC50 of CCCC(C)N(C)C(=O)OCc1c(-c2ccc(O[C@H]3CCC[C@H](C(=O)O)C3)c(F)c2)nnn1C (mixture of isomers) .
Return: 7.60

Enquiry: Give the measured pIC50 of Cc1nc(-c2nnn(C)c2COC(=O)N(C)CC(C)C)ccc1O[C@H]1CCC[C@H](C(=O)O)C1 .
Return: 7.54

Enquiry: Give the measured pIC50 of CCCC1(N(C)C(=O)OCc2c(-c3ccc(O[C@H]4CCC[C@H](C(=O)O)C4)cc3)nnn2C)CC1 .
Return: 7.70

Enquiry: Give the measured pIC50 of Cc1nc(-c2nnn(C)c2COC(=O)N2CC3(CCC3)C2)ccc1O[C@H]1CCC[C@H](C(=O)O)C1 .
Return: 7.12

Enquiry: Give the measured pIC50 of Cc1nc(-c2nnn(C)c2COC(=O)N(C)Cc2cnccn2)ccc1O[C@H]1CCC[C@H](C(=O)O)C1 .
Return: 6.21

Enquiry: Give the measured pIC50 of CC(C1CCC1)N(C)C(=O)OCc1c(-c2ccc(O[C@H]3CCC[C@H](C(=O)O)C3)cc2)nnn1C (single isomer, unassigned) [Example 67] .
Return: 6.96

Enquiry: Give the measured pIC50 of Cc1nc(-c2nnn(C)c2COC(=O)N2CCC2C)ccc1O[C@H]1CCC[C@H](C(=O)O)C1 (mixture of isomers) .
Return: 6.28

Enquiry: Give the measured pIC50 of Cc1nc(-c2nnn(C)c2COC(=O)N2CCC(CC(C)C)C2)ccc1O[C@H]1CCC[C@H](C(=O)O)C1 (mixture of isomers) .
Return: 7.00

Enquiry: Give the measured pIC50 of CCCCN(C)C(=O)OCc1c(-c2ccc(O[C@H]3CCC[C@H](C(=O)O)C3)cn2)nnn1C .
Return: 8.15

Enquiry: Give the measured pIC50 of Cc1nc(-c2nnn(C)c2COC(=O)N(C)C2(C)CC(C)C2)ccc1O[C@H]1CCC[C@H](C(=O)O)C1 (single isomer, unassigned) [Example 106] .
Return: 7.17

Enquiry: Give the measured pIC50 of Cc1cc(-c2nnn(C)c2COC(=O)N(C)CCC(C)C)ncc1O[C@H]1CCC[C@H](C(=O)O)C1 .
Return: 5.43

Enquiry: Give the measured pIC50 of CCCC(C)N(C)C(=O)OCc1c(-c2ccc(O[C@H]3CCC[C@H](C(=O)O)C3)cc2)nnn1C (mixture of isomers) .
Return: 6.85

Enquiry: Give the measured pIC50 of CN(C(=O)OCc1c(-c2ccc(O[C@H]3CCC[C@](F)(C(=O)O)C3)cn2)nnn1C)C1CCCC1 (racemic) .
Return: 7.49
